Reported log P values follow for various molecules
- Assay Protocol: log P by HPLC (EEC Directive 79/831 Annex V.A8)
- Assay type: physicochemical
- Condition: [b] LC-MS, acidic range, pH 2.7, 0.1% aqueous formic acid and acetonitrile
API doc: respond with a numeric literal and nothing else, no unit.

Look up and report measured log P for this entry: CN(Cc1ccccc1Br)C(=O)c1cccc(C2CCN(C(=O)Cn3nc(C(F)F)cc3C(F)F)CC2)n1 [Example 1]
3.32

Check the records and state log P for Cc1cc(C(F)(F)F)nn1CC(=O)N1CCC(c2cccc(C(=O)NCc3ccccc3Cl)n2)CC1 [Example 23]
3.49

Given the molecule Cc1cc(C(F)(F)F)nn1CC(=O)N1CCC(c2cccc(C(=O)NCc3cccs3)n2)CC1 [Example 26] , write its reported log P.
3.15

Determine its reported log P: Cc1cc(C(F)(F)F)nn1CC(=O)N1CCN(c2cccc(C(=O)NCc3c(F)cccc3F)n2)CC1 [Example 66]
3.11

Note log P for the molecule shown: Cc1ccccc1CSC(=O)c1cccc(C2CCN(C(=O)Cn3nc(C(F)(F)F)cc3C)CC2)n1 [Example 56]
4.57

Using the record for Cc1cc(C(F)(F)F)nn1CC(=O)N1CCN(c2cccc(C(=O)OCc3ccccc3F)n2)CC1 [Example 73] , state its measured log P.
3.58

----------
This listing pairs compounds with measured log P.
- Assay Protocol: log P by HPLC (EEC Directive 79/831 Annex V.A8)
- Assay type: physicochemical
- Condition: [b] LC-MS, acidic range, pH 2.7, 0.1% aqueous formic acid and acetonitrile
Response field accepts a number only; no unit should be typed.

Here are 4 compounds together with their reported answers.
INSERT INTO results (smiles_record, observed_property, recorded_value) VALUES
  ('Cc1cc(C(F)(F)F)nn1CC(=O)N1CCN(c2cccc(C(=O)Oc3cccc4ccccc34)n2)CC1', 'log P', 3.99),
  ('Cc1cc(C(F)(F)F)nn1CC(=O)N1CCC(c2cccc(C(=O)Nc3c(F)cccc3F)n2)CC1', 'log P', 3.13),
  ('Cc1cc(C(F)(F)F)nn1CC(=O)N1CCC(c2cccc(C(=O)SCc3c(F)cccc3F)n2)CC1', 'log P', 4.27),
  ('Cc1cc(C(F)(F)F)nn1CC(=O)N1CCC(c2cccc(C(=O)Nc3cccc4ccccc34)n2)CC1', 'log P', 3.94);

Let me know recorded log P for Cc1cc(C(F)(F)F)nn1CC(=O)N1CCC(c2cccc(C(=O)NCc3ccccn3)n2)CC1 , thanks.
1.97

----------
The compounds listed here are annotated with their log P.
- Assay Protocol: log P by HPLC (EEC Directive 79/831 Annex V.A8)
- Assay type: physicochemical
- Condition: [b] LC-MS, acidic range, pH 2.7, 0.1% aqueous formic acid and acetonitrile
Marks after values point to notes of the source that are not given here.

INSERT INTO measurements (compound, recorded_value) VALUES
  ('C=CCCCCOC(=O)c1cccc(C2CCN(C(=O)Cn3nc(C(F)F)cc3C(F)F)CC2)n1', '3.8^[b]'),
  ('Cc1cc(C(F)(F)F)nn1CC(=O)N1CCN(c2cccc(C(=O)NCc3cccs3)n2)CC1', 2.92),
  ('CN(Cc1ccccn1)C(=O)c1cccc(C2CCN(C(=O)Cn3nc(C(F)F)cc3C(F)F)CC2)n1', 1.81),
  ('O=C(OCc1ccccc1F)c1cccc(C2CCN(C(=O)Cn3nc(C(F)F)cc3C(F)F)CC2)n1', '3.45^[b]'),
  ('Cc1cc(C(F)(F)F)nn1CC(=O)N1CCC(c2cccc(C(=O)OC3C=CCCC3)n2)CC1 (stereo not shown)', '3.64^[b]');

Recall and state the measured log P for Cc1cc(C(F)(F)F)nn1CC(=O)N1CCC(c2cccc(C(=O)OC3CCCCC3)n2)CC1 .
3.9^[b]

Name the recorded log P of the item O=C(Oc1ccc2ccccc2c1)c1cccc(C2CCN(C(=O)Cn3nc(C(F)F)cc3C(F)F)CC2)n1 in your answer.
3.86^[b]

# return recorded log P for input Cc1ccsc1CNC(=O)c1cccc(C2CCN(C(=O)Cn3nc(C(F)(F)F)cc3C)CC2)n1
3.29

Given O=C(OCc1ccccc1Cl)c1cccc(C2CCN(C(=O)Cn3nc(C(F)F)cc3C(F)F)CC2)n1 , respond with its log P.
3.77^[b]

Supply recorded log P for O=C(NCc1cccs1)c1cccc(C2CCN(C(=O)Cn3nc(C(F)F)cc3C(F)F)CC2)n1 here.
2.98

Kindly indicate its recorded log P. Item: CCCCCCCNC(=O)c1cccc(C2CCN(C(=O)Cn3nc(C(F)(F)F)cc3C)CC2)n1
4.25

Input O=C(NCc1c(F)cccc1F)c1cccc(C2CCN(C(=O)Cn3nc(C(F)F)cc3C(F)F)CC2)n1 , output reported log P.
3.11

Identify the reported log P for the following entry. Cc1cc(C(F)(F)F)nn1CC(=O)N1CCC(c2cccc(C(=O)OC3CCCCC3F)n2)CC1 (stereo not shown)
3.43^[b]

Quick one: give measured log P for CCCCCC(C)NC(=O)c1cccc(C2CCN(C(=O)Cn3nc(C(F)F)cc3C(F)F)CC2)n1 (stereo not shown)
3.99

----------
- Assay Protocol: log P by HPLC (EEC Directive 79/831 Annex V.A8)
- Assay type: physicochemical
- Condition: [c] LC-MS, neutral range, pH 7.8, 0.001 molar aqueous ammonium hydrogencarbonate and acetonitrile
// values below are reported log P
Answer field: number only, no words.

INSERT INTO results (smiles_record, recorded_value) VALUES
  ('Cc1cc(C(F)(F)F)nn1CC(=O)N1CCN(c2cccc(C(=O)Oc3ccc4ccccc4c3)n2)CC1', 4.02);

We next turn to a different compound, shown below.
Entry O=C(NCc1ccccn1)c1cccc(C2CCN(C(=O)Cn3nc(C(F)F)cc3C(F)F)CC2)n1 needs its log P filled in; supply it.
2.37

----------
- Assay Protocol: log P by HPLC (EEC Directive 79/831 Annex V.A8)
- Format: physicochemical
- Condition: [b] LC-MS, acidic range, pH 2.7, 0.1% aqueous formic acid and acetonitrile
Observed Property: log P
I'd appreciate a reply containing only the number, no unit.

Worked examples, 3 compounds total:
INSERT INTO measurements (compound, observed_property, recorded_value) VALUES
  ('Cc1cc(C(F)(F)F)nn1CC(=O)N1CCN(c2cccc(C(=O)N(C)C3CCCc4ccccc43)n2)CC1 (stereo not shown)', 'log P', 3.55),
  ('O=C(NCc1ccccc1Cl)c1cccc(C2CCN(C(=O)Cn3nc(C(F)F)cc3C(F)F)CC2)n1', 'log P', 3.35),
  ('O=C(NCc1ccccc1Br)c1cccc(C2CCN(C(=O)Cn3nc(C(F)F)cc3C(F)F)CC2)n1', 'log P', 3.44);

Retrieve log P measured for Cc1cc(C(F)(F)F)nn1CC(=O)N1CCC(c2cccc(C(=O)NCc3ccc(Cl)cc3Cl)n2)CC1 and print it.
4.1

Supply recorded log P for Cc1cc(C(F)(F)F)nn1CC(=O)N1CCC(c2cccc(C(=O)SCc3ccc(F)cc3)n2)CC1 here.
4.29

----------
Measured log P by item
- Assay Protocol: log P by HPLC (EEC Directive 79/831 Annex V.A8)
- Assay type: physicochemical
- Condition: [c] LC-MS, neutral range, pH 7.8, 0.001 molar aqueous ammonium hydrogencarbonate and acetonitrile
Lab note: record just the number, no unit beside it.

Worked examples, 10 compounds total:
INSERT INTO assay_data (compound, observed_property, recorded_value) VALUES
  ('Cc1ccccc1CSC(=O)c1cccc(C2CCN(C(=O)Cn3nc(C(F)(F)F)cc3C)CC2)n1 [Example 56]', 'log P', 4.58),
  ('CN(Cc1ccccc1Br)C(=O)c1cccc(C2CCN(C(=O)Cn3nc(C(F)F)cc3C(F)F)CC2)n1 [Example 1]', 'log P', 3.37),
  ('CCCCCC(C)NC(=O)c1cccc(C2CCN(C(=O)Cn3nc(C(F)(F)F)cc3C)CC2)n1 (racemic) [Example 17]', 'log P', 4.13),
  ('O=C(Sc1cccc2ccccc12)c1cccc(N2CCN(C(=O)Cn3nc(C(F)F)cc3C(F)F)CC2)n1 [Example 120]', 'log P', 4.28),
  ('Cc1cc(C(F)(F)F)nn1CC(=O)N1CCN(c2cccc(C(=O)NCc3cccs3)n2)CC1 [Example 67]', 'log P', 2.93),
  ('O=C(OC1CCCCC1)c1cccc(N2CCN(C(=O)Cn3nc(C(F)F)cc3C(F)F)CC2)n1 [Example 140]', 'log P', 3.86),
  ('O=C(SCc1ccccc1Cl)c1cccc(C2CCN(C(=O)Cn3nc(C(F)F)cc3C(F)F)CC2)n1 [Example 126]', 'log P', 4.49),
  ('C=CCCCCOC(=O)c1cccc(N2CCN(C(=O)Cn3nc(C(F)(F)F)cc3C)CC2)n1 [Example 71]', 'log P', 3.95),
  ('Cc1cc(C(F)(F)F)nn1CC(=O)N1CCN(c2cccc(C(=O)SCc3c(F)cccc3F)n2)CC1 [Example 149]', 'log P', 4.29),
  ('Cc1cc(C(F)(F)F)nn1CC(=O)N1CCN(c2cccc(C(=O)NCc3c(F)cccc3F)n2)CC1 [Example 66]', 'log P', 3.12);

Quick one: give measured log P for CCCCCC(C)NC(=O)c1cccc(C2CCN(C(=O)Cn3nc(C(F)F)cc3C(F)F)CC2)n1 (centres unmarked) [Example 83]
3.95

Using the record for O=C(Sc1ccccc1)c1cccc(C2CCN(C(=O)Cn3nc(C(F)F)cc3C(F)F)CC2)n1 [Example 121] , state its measured log P.
3.85

Given O=C(SCc1c(F)cccc1F)c1cccc(N2CCN(C(=O)Cn3nc(C(F)F)cc3C(F)F)CC2)n1 [Example 125] , respond with its log P.
4.14

Write down log P measured for item Cc1cc(C(F)(F)F)nn1CC(=O)N1CCC(c2cccc(C(=O)SCc3ccc(F)cc3)n2)CC1 [Example 59]
4.31

Return log P (reported value) for this compound: O=C(OCc1ccccc1F)c1cccc(N2CCN(C(=O)Cn3nc(C(F)F)cc3C(F)F)CC2)n1 [Example 137]
3.49

State its log P for this compound: O=C(NCc1c(F)cccc1F)c1cccc(C2CCN(C(=O)Cn3nc(C(F)F)cc3C(F)F)CC2)n1 [Example 89]
3.14

Provenance of the data: patent US8604040B2
